Assay: Single-dose oral toxicokinetic study of prodrugs in rats
Type: in vivo, rat
Conditions: male, CD, rat, plasma, po, 25 mg/kg; read-out: AUC from zero to ∞
Procedure: A 1-day oral toxicokinetic study in rats was conducted using the prodrug Iab (monolysine salt). Iab was administered at dosages of 16, 72, and 267 mg/kg (free acid) by oral gavage to three male rats/group using water as the vehicle (solution formulation). The dosages of prodrug free acid correspond to IVa (parent) molar equivalent dosages of 13, 57, and 211 mg/kg, respectively. The endpoint evaluated was plasma toxicokinetics of Iab and IVa in the individual rats. […]
Endpoint: AUC (µM·h)
One number for each entry, in µM·h.

Query: AUC for COc1cnc(-n2cnc(C)n2)c2[nH]cc(C(=O)C(=O)N3CCN(C(=O)c4ccccc4)CC3)c12 [IVc] ?
Result: 586

---

assay: Single-dose toxicokinetic and tolerability study of prodrugs in dogs; assay type: in vivo, dog; conditions: male, dog, plasma, 25 mg/kg, dog 2101M, day 8, Icb 25 mg/kg QD aqueous solution
Endpoint: AUC(0-inf) (µM·h)
Numbers only, in µM·h.

Query: AUC(0-inf) for COc1cnc(-n2cnc(C)n2)c2[nH]cc(C(=O)C(=O)N3CCN(C(=O)c4ccccc4)CC3)c12 [IVc] ?
Result: 362

---

assay: Single-dose toxicokinetic and tolerability study of prodrugs in dogs; format: in vivo, dog; conditions: male, dog, plasma, oral, 125 mg/kg, dog 4101M, day 8, Icb 125 mg/kg BID dry-filled capsules; read-out: C24h
Endpoint: concentration at 24 h (µM)
Numbers only, in µM.

Query: concentration at 24 h for `COc1cnc(-n2cnc(C)n2)c2[nH]cc(C(=O)C(=O)N3CCN(C(=O)c4ccccc4)CC3)c12` ?
Result: 54.2

---

experiment: Single-dose toxicokinetic and tolerability study of prodrugs in dogs; format: in vivo, dog; conditions: female, dog, plasma, oral, 25 mg/kg, dog 2201F, day 1, Icb 25 mg/kg (IVc equiv. 20) QD dry-filled capsules; read-out: C24h
Endpoint: concentration at 24 h
Answer with the number, then the unit.

Query: concentration at 24 h for `COc1cnc(-n2cnc(C)n2)c2[nH]cc(C(=O)C(=O)N3CCN(C(=O)c4ccccc4)CC3)c12` ?
Result: 688 nM

---

experiment: Effect of food on oral absorption of IVa in dogs after Iab or IVa capsules; format: in vivo, dog; conditions: dog, plasma, po, 20 mg/kg, IVa after Iab dry-filled capsules, Fed
Endpoint: Cmax (µM)
Numbers only, in µM.

Query: Cmax for `COc1ncc(OC)c2c(C(=O)C(=O)N3CCN(C(=O)c4ccccc4)CC3)c[nH]c12` ?
Result: 130

---

test: MAP studies G and H: PO dosing of diester IIa and monoester II′a in rats; format: in vivo, rat; settings: male, Sprague-Dawley, rat, plasma, po, 5 mg/kg, IVa following PO dosing of monoester II′a
Endpoint: Tmax (h)
Give bare numbers, in h.

Query: Tmax for `COc1ncc(OC)c2c(C(=O)C(=O)N3CCN(C(=O)c4ccccc4)CC3)c[nH]c12` ?
Result: 2

---

Assay: IV and oral rat PK (MAP) studies A, B, C of phosphate prodrugs and parent studies A1, B1, C1
Assay type: in vivo, Sprague-Dawley rats
Conditions: male, Sprague-Dawley, rat, plasma, 1 mg/kg; rats, prodrug IV equivalent to 1 mpk of parent; read-out: Vss i.v.
Protocol: The rats for oral dosing studies were fasted overnight. […] The dosing solutions of all three prodrugs for both IV and oral administration were prepared in 100% normal saline at 1 mg/mL (dosing solution concentrations were parent compound equivalent). Plasma samples were collected in EDTA vacutainers over 24 hrs, and analyzed by LC/MS/MS for both the prodrugs and parent molecules. Pharmacokinetic analysis was performed on Kinetica™. […]
Endpoint: Vd (L/kg)
Give bare numbers, in L/kg.

Query: Vd for `COc1cnc(OC)c2c1c(C(=O)C(=O)N1CCN(C(=O)c3ccccc3)CC1)cn2COP(=O)(O)O` ?
Result: 0.095

---

Experiment: Single-dose toxicokinetic and tolerability study of prodrugs in dogs
Format: in vivo, dog
Settings: female, dog, plasma, oral, 25 mg/kg, dog 2201F, day 1, Ibb 25 mg/kg QD dry-filled capsules; read-out: C24h
Experimental: A multi-phase study was conducted to evaluate the tolerability of the prodrug, Iab (monolysine salt) at dosages of 24, 90, or 240 mg/kg (free acid, molar equivalent to 19, 71, or 190 mg/kg of parent IVa, respectively) and the toxicokinetics of lab and IVa (4). Iab was administered to two female dogs/group once daily either as an aqueous solution (24 or 90 mg/kg) or dry-filled capsules (24, 90 [once and twice daily] or 240 mg/kg). […]
Endpoint: concentration at 24 h (nM)
Numbers only, in nM.

Query: concentration at 24 h for `O=C(C(=O)N1CCN(C(=O)c2ccccc2)CC1)c1c[nH]c2c(-n3ccnn3)ncc(F)c12` ?
Result: 688

---

assay: MAP studies G and H: PO dosing of diester IIa and monoester II′a in rats; type: in vivo, rat; conditions: male, Sprague-Dawley, rat, plasma, po, 5 mg/kg, IVa following PO dosing of monoester II′a, read-out: T½ p.o. (converted)
Endpoint: half-life (min)
Numbers only, in min.

Query: half-life for `COc1ncc(OC)c2c(C(=O)C(=O)N3CCN(C(=O)c4ccccc4)CC3)c[nH]c12` ?
Result: 168

---

experiment: in vitro; conditions: monkey, serum
Endpoint: half-life at 15 μM (min)
Answers are plain numbers, in min.

Query: half-life at 15 μM for `O=C(C(=O)N1CCN(C(=O)c2ccccc2)CC1)c1cn(COP(=O)(O)O)c2c(-n3ccnn3)ncc(F)c12` ?
Result: 15

---

Assay: IV and PO pharmacokinetic studies of prodrug salts (Iab, Ibb, Icb) in the dog, with historical parent data
Format: in vivo, beagle dogs
Details: plasma, iv, 1 mg/kg, read-out: T1/2 (converted)
Protocol: The IV and PO studies of Iab were conducted in a crossover fashion in three male beagle dogs (11±1.1 kg, Marshall Farms USA Inc., North Rose, N.Y.). There was a two-week washout period between the IV and PO studies. In the IV study, Iab was infused via the cephalic vein at 1.2 mg/kg (free acid, or 0.95 mg/kg of IVa equivalent) over 5 min at a constant rate of 0.1 mL/kg/min. The concentration of the dosing solution was 2.4 mg/mL, and the dosing volume was 0.5 mL/kg. […]
Endpoint: half-life (h)
Numbers only, in h.

Query: half-life for `O=C(C(=O)N1CCN(C(=O)c2ccccc2)CC1)c1c[nH]c2c(-n3ccnn3)ncc(F)c12` ?
Result: 1.6

---

test: IV and PO pharmacokinetic studies of prodrug salts (Iab, Ibb, Icb) in the dog, with historical parent data; type: in vivo, beagle dogs; conditions: male, beagle, plasma, po, 7 mg/kg, read-out: Tmax
For each entry below, report its Tmax value.
Answers are plain numbers, in min.

O=C(C(=O)N1CCN(C(=O)c2ccccc2)CC1)c1c[nH]c2c(-n3ccnn3)ncc(F)c12 ... 24

Would you kindly look at the next entry?
Query: Tmax for `O=C(C(=O)N1CCN(C(=O)c2ccccc2)CC1)c1cn(COP(=O)(O)O)c2c(-n3ccnn3)ncc(F)c12` ?
Result: 19.8

---

experiment: Oral dose escalation study in rats (Study D of Ica; historical Study E of IVc); format: in vivo; conditions: male, Sprague-Dawley, rat, plasma, po, 25 mg/kg; read-out: C-24 hr
Endpoint: concentration at 24 h (nM)
Give bare numbers, in nM.

Query: concentration at 24 h for `COc1cnc(-n2cnc(C)n2)c2[nH]cc(C(=O)C(=O)N3CCN(C(=O)c4ccccc4)CC3)c12` ?
Result: 350

---

test: IV and PO pharmacokinetic studies of prodrug salts (Iab, Ibb, Icb) in the dog, with historical parent data; type: in vivo, beagle dogs; conditions: plasma, historical parent, PO 5 mg/kg, read-out: Cmax (μM), PO
Endpoint: Cmax (µM)
One number for each entry, in µM.

Query: Cmax for `COc1ncc(OC)c2c(C(=O)C(=O)N3CCN(C(=O)c4ccccc4)CC3)c[nH]c12` ?
Result: 6.5

---

Test: Single-dose toxicokinetic and tolerability study of prodrugs in dogs
Assay type: in vivo, dog
Conditions: female, dog, plasma, po, 25 mg/kg, dog 2201F, day 8, Ibb 25 mg/kg QD aqueous solution
Description: A multi-phase study was conducted to evaluate the tolerability of the prodrug, Iab (monolysine salt) at dosages of 24, 90, or 240 mg/kg (free acid, molar equivalent to 19, 71, or 190 mg/kg of parent IVa, respectively) and the toxicokinetics of lab and IVa (4). Iab was administered to two female dogs/group once daily either as an aqueous solution (24 or 90 mg/kg) or dry-filled capsules (24, 90 [once and twice daily] or 240 mg/kg). […]
Endpoint: AUC(0-inf)
Answer with the number, then the unit.

Query: AUC(0-inf) for `O=C(C(=O)N1CCN(C(=O)c2ccccc2)CC1)c1c[nH]c2c(-n3ccnn3)ncc(F)c12` ?
Result: 139 µM·h
